B1: TPR t1 (parent)
chain: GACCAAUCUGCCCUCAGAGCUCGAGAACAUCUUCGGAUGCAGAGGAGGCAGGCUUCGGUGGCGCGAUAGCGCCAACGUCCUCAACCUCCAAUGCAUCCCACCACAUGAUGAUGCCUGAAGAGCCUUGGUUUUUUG

Variants of: B1
Test: polymerase ribozyme fitness, log enrichment relative to wild type (log ratio); higher = more active; in vitro selection for triplet polymerase activity
Binning scheme for polymerase ribozyme fitness (log ratio): label 0 = under -4, label 1 = from -4 up to -2, label 2 = -2 and over

Reference set, count: 3
chain: GACCAAUCUGCCCUCAGAGCUCGAGAACAUCUUCGGAUGCAGAGGAGGCAGGCUUGGGUGGCGCGAUAGCGCCAACGUCCUCAACCUCCAAUGCAUCCCACCACAUGAUGAUGCCUGAAGAGCCUUGGCUUUUUG [C56G U129C]
category.label: label 2
//
chain: GAACAAUCUGCCCUCAGAGCUCGAGAACAUCUUCGGAUGCAGAGGAGGGAGGCUUCGGUGGCGCGAUAGCGCCAUCGUCCUCAACCUCCAAUGCAUCCCACCACAUGAUGAUGCCUGAAGAGCCAUGGUUUUUUG [C3A C49G A75U U125A]
category.label: label 1
//
chain: GACCAAUCUUCCCUCAGAGCUCGAGAACAUCUUCGGAUGCAGAGGAGGCAGGCUUCGGUUGCGCGAUAGCGCCAACGUCCUCAACCUCCAAUGCAUCCCACCACAUGAUGAUGCCUGAAGAGCCUUGGUUUUUUG [G10U G60U]
category.label: label 2

Okay, now this variant:
Hi, small favor: classify GACCAAUCUGCCCUCAGAGCUCGAGAACAUCUUCGGAUGCAGAGGAGGGAGGCUUCGGUGGCGCGAUAGCGCCAACGUCCUCAACCUCCAAUGCAUCCCACCACAUGAUGAUGCCUCAAGAGCCUUGGUUUUUUG [C49G G117C] by its polymerase ribozyme fitness (log ratio) when you get a moment.
label 0
